Test system: PPARa:RXRa (NR concentration 270 nM, RXRa partner concentration 90 nM)
measurementProtocol: PBM binding z-score (relative to random genomic background probes); higher = stronger binding; sequences stand for … in GC…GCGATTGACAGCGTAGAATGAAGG
The following sequences are shown together with reported PBM binding z-score values.
valueType: PBM binding z-score

> print(dat)
                         entrysequence            valuetype  reportedresult
 1  ATCTCTCGGTAAAGTTCAGTGAAAGATCGATAGA  PBM binding z-score             1.6
 2  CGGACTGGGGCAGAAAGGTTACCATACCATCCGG  PBM binding z-score             2.7
 3  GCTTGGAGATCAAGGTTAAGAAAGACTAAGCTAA  PBM binding z-score            1.57
 4  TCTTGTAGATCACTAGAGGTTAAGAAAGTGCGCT  PBM binding z-score            1.88
 5  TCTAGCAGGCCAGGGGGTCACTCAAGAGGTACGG  PBM binding z-score            4.64
 6  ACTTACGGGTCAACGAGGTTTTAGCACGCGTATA  PBM binding z-score            5.92
 7  TCTGCGAGGTCAACGATGGTCAGCTAATCTGCTA  PBM binding z-score            5.65
 8  ACAGACAGGTGATGCAGGTAACTCAGGCTATCAT  PBM binding z-score         0.00895
 9  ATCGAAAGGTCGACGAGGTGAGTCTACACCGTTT  PBM binding z-score            4.55
10  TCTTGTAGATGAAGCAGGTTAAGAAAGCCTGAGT  PBM binding z-score           0.511
11  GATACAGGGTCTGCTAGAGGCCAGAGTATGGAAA  PBM binding z-score          -0.759
12  TGTTAAAGTTCAAAGGTAACGTAAGTATCCACAC  PBM binding z-score            5.47
13  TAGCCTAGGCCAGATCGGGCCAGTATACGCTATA  PBM binding z-score           -1.12
14  GGAACGAGGGCATTAGAGTTGATAGCATGGCGAT  PBM binding z-score            1.22
15  TCATATAGGTAATTGCTAGGTGAAAGTCCGATCT  PBM binding z-score            1.41
16  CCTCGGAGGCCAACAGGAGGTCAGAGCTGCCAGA  PBM binding z-score            2.29
17  CAAACTAGGACACGAAAGGTCAAAGTCGAATGAC  PBM binding z-score             5.8
18  TCTCGGAGGAGACGAAGGTCAGAGCTTTCCAGAG  PBM binding z-score            1.62
19  ATCTCTAGGTAACCAAGTCCAGTGAATGCCGAAC  PBM binding z-score            0.54
20  TCATATTGGTAAATGCTAGGTGAAAGTCCGATCT  PBM binding z-score           0.861
21  CCAACTAGGTCAAGAGGTCAAAGTCCGCTTCCCG  PBM binding z-score            6.42
22  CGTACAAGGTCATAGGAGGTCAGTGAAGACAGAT  PBM binding z-score            6.18
23  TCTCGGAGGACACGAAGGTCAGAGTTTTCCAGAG  PBM binding z-score            1.81
24  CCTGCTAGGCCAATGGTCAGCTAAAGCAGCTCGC  PBM binding z-score          -0.216
25  CTCGAACGGTCGGTTGAGGTGAGTATACGGATAA  PBM binding z-score            -0.3
26  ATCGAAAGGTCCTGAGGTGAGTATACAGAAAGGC  PBM binding z-score            1.21
27  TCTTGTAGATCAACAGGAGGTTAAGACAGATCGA  PBM binding z-score             1.3
28  CCTACTGGGCCAAAAAGGTGATTGATGCCGATAA  PBM binding z-score           0.761
29  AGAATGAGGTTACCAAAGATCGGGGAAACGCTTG  PBM binding z-score            3.28
30  TCTAGTTGGTCATAGGTCACACACTCGAAATGCG  PBM binding z-score            4.96
31  GCTACCAGGCCATTTGGGTCACTCAATGACGGGC  PBM binding z-score            1.57
32  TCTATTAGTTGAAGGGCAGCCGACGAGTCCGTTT  PBM binding z-score           0.856
33  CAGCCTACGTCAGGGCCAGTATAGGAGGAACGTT  PBM binding z-score          -0.518
34  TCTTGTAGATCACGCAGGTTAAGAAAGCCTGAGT  PBM binding z-score            1.09
35  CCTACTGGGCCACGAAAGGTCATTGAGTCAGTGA  PBM binding z-score            4.87
36  CAGGCTAGGTCAGGGCCAGTATAGGAGGAACGTT  PBM binding z-score            2.06
37  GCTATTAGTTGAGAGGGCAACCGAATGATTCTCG  PBM binding z-score            1.38
38  AGAATGAGGTTATACCTAGATCAGGGAAGAAAGT  PBM binding z-score            3.15
39  TCTAGGAGGACACGAAAGGTCAGAGCTCGACATC  PBM binding z-score            3.91
40  AGTCAAAGTTCATGTAGGTAACGTAAGATATGCT  PBM binding z-score             4.9
41  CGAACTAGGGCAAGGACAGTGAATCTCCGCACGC  PBM binding z-score            1.76
42  TTACCAAGGTGAGCTGAGGGCGTTGATCCAACTC  PBM binding z-score           0.372
43  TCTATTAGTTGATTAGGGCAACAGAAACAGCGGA  PBM binding z-score            1.01
44  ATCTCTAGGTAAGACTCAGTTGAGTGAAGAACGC  PBM binding z-score         -0.0553
45  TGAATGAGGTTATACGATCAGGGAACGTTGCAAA  PBM binding z-score            2.91

Entry source: the supplement of paper PMC6555819
